# test: cn = amount concentration of the nth substance listed, in mol/dm3
# experimental-conditions: 303 K; 101 kPa; Liquid; Linear variable-path acoustic interferometer; c1 = 0.02
Some molecules, each annotated with its measured speed of sound.
Your answer is read as m/s, so omit the unit and give the number.

// worked examples, speed of sound included
O=C1C(Cl)=C(Cl)C(=O)C(Cl)=C1Cl [2,3,5,6-tetrachloro-p-benzoquinone] + C[S+](C)[O-] ... 1468.7
CNc1ccccc1 [N-methylaniline] + C[S+](C)[O-] ... 1473.9
Nc1ccccc1 [aniline] + C[S+](C)[O-] ... 1474
CN(C)c1ccccc1 [N,N-dimethylaniline] + C[S+](C)[O-] ... 1472

Proceed to the following item.
What measured speed of sound goes with Cc1ccccc1N [2-methylaniline] + C[S+](C)[O-] ?
1473.9

* * *

Some compounds, each annotated with its measured mass density.
# test: cn = amount concentration of the nth substance listed, in mol/dm3
# experimental-conditions: 303 K; 101 kPa; Liquid; Pycnometric method; c1 = 0.01
± gives the expanded uncertainty stated by the source.
Value and unit, in that order.

// worked examples, mass density included
CN(C)c1ccccc1 [N,N-dimethylaniline] + C[S+](C)[O-] ... 1089.9 ± 0.8 kg/m3
O=C1C(Cl)=C(Cl)C(=O)C(Cl)=C1Cl [2,3,5,6-tetrachloro-p-benzoquinone] + C[S+](C)[O-] ... 1092.1 ± 0.8 kg/m3
Cc1ccccc1N [2-methylaniline] + C[S+](C)[O-] ... 1089.5 ± 0.8 kg/m3

What measured mass density goes with CNc1ccccc1 [N-methylaniline] + C[S+](C)[O-] ?
1089.8 ± 0.8 kg/m3

Now consider Nc1ccccc1 [aniline] + C[S+](C)[O-] .
1090.6 ± 0.8 kg/m3

* * *

Some compounds, each annotated with its measured speed of sound.
# test: cn = amount concentration of the nth substance listed, in mol/dm3
# experimental-conditions: 303 K; 101 kPa; Liquid; Linear variable-path acoustic interferometer; c1 = 0.004
Your answer is read as m/s, so omit the unit and give the number.

// worked examples, speed of sound included
O=C1C(Cl)=C(Cl)C(=O)C(Cl)=C1Cl [2,3,5,6-tetrachloro-p-benzoquinone] + C[S+](C)[O-] ... 1472.6
CNc1ccccc1 [N-methylaniline] + C[S+](C)[O-] ... 1471.8
CN(C)c1ccccc1 [N,N-dimethylaniline] + C[S+](C)[O-] ... 1472.5
Cc1ccccc1N [2-methylaniline] + C[S+](C)[O-] ... 1471.8

Proceed to the following item.
What measured speed of sound goes with Nc1ccccc1 [aniline] + C[S+](C)[O-] ?
1473.9

* * *

# test: cn = amount concentration of the nth substance listed, in mol/dm3
# experimental-conditions: 303 K; 101 kPa; Liquid; Linear variable-path acoustic interferometer; c1 = 0.014
± gives the expanded uncertainty stated by the source.
Some compounds, each annotated with its measured speed of sound.
Value and unit, in that order.

CNc1ccccc1 [N-methylaniline] + C[S+](C)[O-] ... 1472.5 ± 3.2 m/s
CN(C)c1ccccc1 [N,N-dimethylaniline] + C[S+](C)[O-] ... 1472.3 ± 3.2 m/s
O=C1C(Cl)=C(Cl)C(=O)C(Cl)=C1Cl [2,3,5,6-tetrachloro-p-benzoquinone] + C[S+](C)[O-] ... 1467.1 ± 3.2 m/s

What measured speed of sound goes with Nc1ccccc1 [aniline] + C[S+](C)[O-] ?
1472.7 ± 3.2 m/s

Now consider Cc1ccccc1N [2-methylaniline] + C[S+](C)[O-] .
1472.5 ± 3.2 m/s

* * *

Some compounds, each annotated with its measured mass density.
# test: cn = amount concentration of the nth substance listed, in mol/dm3
# experimental-conditions: 303 K; 101 kPa; Liquid; Pycnometric method; c1 = 0.002
Your answer is read as kg/m3, so omit the unit and give the number.

// worked examples, mass density included
CN(C)c1ccccc1 [N,N-dimethylaniline] + C[S+](C)[O-] ... 1090.7
O=C1C(Cl)=C(Cl)C(=O)C(Cl)=C1Cl [2,3,5,6-tetrachloro-p-benzoquinone] + C[S+](C)[O-] ... 1091.4
Nc1ccccc1 [aniline] + C[S+](C)[O-] ... 1090.4
Cc1ccccc1N [2-methylaniline] + C[S+](C)[O-] ... 1090.8

Proceed to the following item.
What measured mass density goes with CNc1ccccc1 [N-methylaniline] + C[S+](C)[O-] ?
1090.8

* * *

Some compounds, each annotated with its measured speed of sound.
# test: cn = amount concentration of the nth substance listed, in mol/dm3
# experimental-conditions: 303 K; 101 kPa; Liquid; Linear variable-path acoustic interferometer; c1 = 0.008
Your answer is read as m/s, so omit the unit and give the number.

// worked examples, speed of sound included
Cc1ccccc1N [2-methylaniline] + C[S+](C)[O-] ... 1471.2
CN(C)c1ccccc1 [N,N-dimethylaniline] + C[S+](C)[O-] ... 1472.6
O=C1C(Cl)=C(Cl)C(=O)C(Cl)=C1Cl [2,3,5,6-tetrachloro-p-benzoquinone] + C[S+](C)[O-] ... 1471.3
Nc1ccccc1 [aniline] + C[S+](C)[O-] ... 1472.7

Proceed to the following item.
What measured speed of sound goes with CNc1ccccc1 [N-methylaniline] + C[S+](C)[O-] ?
1471.2

* * *

# test: cn = amount concentration of the nth substance listed, in mol/dm3
# experimental-conditions: 303 K; 101 kPa; Liquid; Capillary tube (Ostwald / Ubbelohde) method; c1 = 0.006
attribute-measured: viscosity (mPa·s)
Your answer is read as mPa·s, so omit the unit and give the number.

// worked examples, viscosity included
CN(C)c1ccccc1 [N,N-dimethylaniline] + C[S+](C)[O-] ... 1.721
O=C1C(Cl)=C(Cl)C(=O)C(Cl)=C1Cl [2,3,5,6-tetrachloro-p-benzoquinone] + C[S+](C)[O-] ... 1.758
CNc1ccccc1 [N-methylaniline] + C[S+](C)[O-] ... 1.723
Nc1ccccc1 [aniline] + C[S+](C)[O-] ... 1.79

What measured viscosity goes with Cc1ccccc1N [2-methylaniline] + C[S+](C)[O-] ?
1.723

* * *

# test: cn = amount concentration of the nth substance listed, in mol/dm3
# experimental-conditions: 303 K; 101 kPa; Liquid; Pycnometric method; c1 = 0.004
Some compounds, each annotated with its measured mass density.
Your answer is read as kg/m3, so omit the unit and give the number.

// worked examples, mass density included
Nc1ccccc1 [aniline] + C[S+](C)[O-] ... 1090.6
O=C1C(Cl)=C(Cl)C(=O)C(Cl)=C1Cl [2,3,5,6-tetrachloro-p-benzoquinone] + C[S+](C)[O-] ... 1091.6
Cc1ccccc1N [2-methylaniline] + C[S+](C)[O-] ... 1090.4
CNc1ccccc1 [N-methylaniline] + C[S+](C)[O-] ... 1090.4

Proceed to the following item.
What measured mass density goes with CN(C)c1ccccc1 [N,N-dimethylaniline] + C[S+](C)[O-] ?
1090.4

* * *

# test: cn = amount concentration of the nth substance listed, in mol/dm3
# experimental-conditions: 303 K; 101 kPa; Liquid; Capillary tube (Ostwald / Ubbelohde) method; c1 = 0.004
Numbers after ± are expanded uncertainties.
Some compounds, each annotated with its measured viscosity.
Value and unit, in that order.

O=C1C(Cl)=C(Cl)C(=O)C(Cl)=C1Cl [2,3,5,6-tetrachloro-p-benzoquinone] + C[S+](C)[O-] ... 1.757 ± 0.017 mPa·s
CN(C)c1ccccc1 [N,N-dimethylaniline] + C[S+](C)[O-] ... 1.725 ± 0.016 mPa·s
CNc1ccccc1 [N-methylaniline] + C[S+](C)[O-] ... 1.713 ± 0.016 mPa·s
Cc1ccccc1N [2-methylaniline] + C[S+](C)[O-] ... 1.713 ± 0.016 mPa·s

Proceed to the following item.
What measured viscosity goes with Nc1ccccc1 [aniline] + C[S+](C)[O-] ?
1.798 ± 0.017 mPa·s

* * *

Some compounds, each annotated with its measured viscosity.
# test: cn = amount concentration of the nth substance listed, in mol/dm3
# experimental-conditions: 303 K; 101 kPa; Liquid; Capillary tube (Ostwald / Ubbelohde) method; c1 = 0.014
Your answer is read as mPa·s, so omit the unit and give the number.

// worked examples, viscosity included
O=C1C(Cl)=C(Cl)C(=O)C(Cl)=C1Cl [2,3,5,6-tetrachloro-p-benzoquinone] + C[S+](C)[O-] ... 1.76
CN(C)c1ccccc1 [N,N-dimethylaniline] + C[S+](C)[O-] ... 1.73
CNc1ccccc1 [N-methylaniline] + C[S+](C)[O-] ... 1.723

What measured viscosity goes with Cc1ccccc1N [2-methylaniline] + C[S+](C)[O-] ?
1.718

Now consider Nc1ccccc1 [aniline] + C[S+](C)[O-] .
1.802

* * *

# test: cn = amount concentration of the nth substance listed, in mol/dm3
# experimental-conditions: 303 K; 101 kPa; Liquid; Pycnometric method; c1 = 0.014
Some compounds, each annotated with its measured mass density.
Your answer is read as kg/m3, so omit the unit and give the number.

// worked examples, mass density included
CNc1ccccc1 [N-methylaniline] + C[S+](C)[O-] ... 1089.7
O=C1C(Cl)=C(Cl)C(=O)C(Cl)=C1Cl [2,3,5,6-tetrachloro-p-benzoquinone] + C[S+](C)[O-] ... 1091.4
Nc1ccccc1 [aniline] + C[S+](C)[O-] ... 1090.5

What measured mass density goes with Cc1ccccc1N [2-methylaniline] + C[S+](C)[O-] ?
1089.7

Now consider CN(C)c1ccccc1 [N,N-dimethylaniline] + C[S+](C)[O-] .
1090.1
